The reported numbers originate from PubChem BioAssay AID1745844.

system: rodent lifetime carcinogenesis bioassay, tumor incidence TD50; assay: carcinogenic potency in animals, long-term in vivo studies, CPDB compilation (AID 1745844); conditions: mouse; strain Charles River CD1; females; in feed; site: small intestine; lesion: adenoma; dosed 113 weeks; study length 113 weeks
Property Name: TD50

Prompt: TD50 lookup needed for O=C1C2CC=CCC2C(=O)N1SC(Cl)(Cl)Cl (stereo unspecified) , thanks.
Response: 13300 mg/kg/day

* * *

system: rodent lifetime carcinogenesis bioassay, tumor incidence TD50; test: carcinogenic potency in animals, long-term in vivo studies, CPDB compilation (AID 1745844); details: mouse; strain B6C3F1; females; by gavage; site: liver; lesion: hepatocellular adenoma + hepatocellular carcinoma + neoplastic nodule; dosed 105 weeks; study length 107 weeks
Property Name: TD50 (mg/kg/day)
Number in mg/kg/day, nothing else.

Prompt: Notebook: pull reported TD50 for rodent lifetime carcinogenesis bioassay, tumor incidence TD50, entry Cc1ccc(N=C=O)cc1N=C=O
Response: 215
